Recorded MFI at 33.3 nM by entry
# subject of test: T1, human PD-L1 on CHO cells (human, UniProt Q9NZQ7 19-290)
# T1 construct: whole, on cells; CHO cells stably expressing PD-L1; also called huPD-L1
# procedure text: flow cytometry, CHO cells stably expressing PD-L1

binder | MFI at 33.3 nM [MFI]
variant CD80 IgV-Fc E35D/M47L/A71G/L85M (Fc fusion, not shown: a dimerising Fc or GST) VIHVTKEVKEVATLSCGHNVSVEELAQTRIYWQKDKKMVLTMMSGDLNIWPEYKNRTIFDITNNLSIVILGLRPSDEGTYECVVMKYEKDAFKREHLAEVTLSVKAD | 8310
variant CD80 IgV-Fc Q27L/E35D/M47V/I61V/L85M (Fc fusion, not shown: a dimerising Fc or GST) VIHVTKEVKEVATLSCGHNVSVEELALTRIYWQKDKKMVLTMMSGDVNIWPEYKNRTIFDVTNNLSIVILALRPSDEGTYECVVMKYEKDAFKREHLAEVTLSVKAD | 2700

The origin of these recorded values is patent US20210130436A1.
